- experimentalSystem: T1, human C1s (human, UniProt P09871 16-688)
- T1 construct: Analyte in the Biacore assays; also called hC1s; serum-derived human C1s (CompTech)
- T1 sequence: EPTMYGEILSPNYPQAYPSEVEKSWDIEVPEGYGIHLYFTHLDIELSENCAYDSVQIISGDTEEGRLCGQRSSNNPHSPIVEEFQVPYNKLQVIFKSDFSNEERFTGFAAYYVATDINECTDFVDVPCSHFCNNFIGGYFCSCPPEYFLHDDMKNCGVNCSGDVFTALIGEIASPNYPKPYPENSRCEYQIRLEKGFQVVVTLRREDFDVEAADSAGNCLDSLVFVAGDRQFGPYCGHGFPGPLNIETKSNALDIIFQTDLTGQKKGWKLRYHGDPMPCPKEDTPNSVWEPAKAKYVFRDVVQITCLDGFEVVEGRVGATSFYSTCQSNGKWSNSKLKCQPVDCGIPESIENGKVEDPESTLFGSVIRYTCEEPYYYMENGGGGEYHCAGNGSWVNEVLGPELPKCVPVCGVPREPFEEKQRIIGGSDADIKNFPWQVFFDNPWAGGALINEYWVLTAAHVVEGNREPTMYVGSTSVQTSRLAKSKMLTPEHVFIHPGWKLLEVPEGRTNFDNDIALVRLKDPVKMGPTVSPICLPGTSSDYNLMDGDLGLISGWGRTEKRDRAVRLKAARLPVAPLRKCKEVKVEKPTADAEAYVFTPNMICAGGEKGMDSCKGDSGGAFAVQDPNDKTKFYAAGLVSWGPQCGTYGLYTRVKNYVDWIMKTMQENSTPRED
- test: SPR (Biacore T200, 37C), Ab captured on protein A/G; pH 5.8, 3 uM Ca
endpointName: pKd
The read-out pKd is expressed as -log10 of concentration in moles per litre.

Q: Given the entry C1_IPN92H0157-SG4GK/IPN93L0024-SK1 (antibody, human IgG4 S228P, kappa, name in Kabat numbering, V domains shown, Substitutions from IPN009VH2, Kabat numbering; also called IPN92H0157/IPN93L0024) VH: EVMLVESGGGLVKPGGSLRLSCAASGFTFSNYAMSWVRQAPGKGLEWVATISSGGSHTRYLDSVKGRFTISRDNSKDTLYLQMNSLRAEDTALYYCARLFTGHAMDYWGQGTLVTVSS VL: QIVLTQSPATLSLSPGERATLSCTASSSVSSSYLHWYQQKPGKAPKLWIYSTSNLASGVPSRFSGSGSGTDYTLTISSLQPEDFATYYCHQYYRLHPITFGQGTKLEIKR , report its measured pKd.
A: 7.99

Q: Given the entry C1_IPN92H0279-SG4GK/IPN93L0091-SK1 (antibody, human IgG4 S228P, kappa, name in Kabat numbering, V domains shown, Substitutions from IPN009VH2 / IPN009VK3, Kabat numbering; also called IPN92H0279/IPN93L0091) VH: EVMLVESGGGLVKPGGSLRLSCAASGFTFSNYAMSWVRQAPGKGLEWVATISSGGSHTYELDSVKERFTISRDNSKDTLYLQMNSLRAEDTALYYCARLFTKHAMDYWGQGTLVTVSS VL: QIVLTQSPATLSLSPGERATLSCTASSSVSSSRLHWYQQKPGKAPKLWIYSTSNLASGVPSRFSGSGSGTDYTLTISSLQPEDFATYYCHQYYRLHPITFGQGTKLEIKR , report its measured pKd.
A: 8.29

Q: Given the entry C1_IPN92H0193-SG4GK/IPN93L0024-SK1 (antibody, human IgG4 S228P, kappa, name in Kabat numbering, V domains shown, Substitutions from IPN009VH2, Kabat numbering; also called IPN92H0193/IPN93L0024) VH: EVMLVESGGGLVKPGGSLRLSCAASGFTFSNYAMSWVRQAPGKGLEWVATISSGGSHTYYLDSVKDRFTISRDNSKDTLYLQMNSLRAEDTALYYCARLFTGHAMDYWGQGTLVTVSS VL: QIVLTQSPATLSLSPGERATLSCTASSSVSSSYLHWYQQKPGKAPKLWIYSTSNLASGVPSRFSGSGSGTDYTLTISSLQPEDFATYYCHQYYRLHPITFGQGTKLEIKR , report its measured pKd.
A: 8.49

Now consider the entry below.
Q: Given the entry C1_IPN92H0160-SG4GK/IPN93L0024-SK1 (antibody, human IgG4 S228P, kappa, name in Kabat numbering, V domains shown, Substitutions from IPN009VH2, Kabat numbering; also called IPN92H0160/IPN93L0024) VH: EVMLVESGGGLVKPGGSLRLSCAASGFTFSNYAMSWVRQAPGKGLEWVATISSGGSHTYELDSVKGRFTISRDNSKDTLYLQMNSLRAEDTALYYCARLFTGHAMDYWGQGTLVTVSS VL: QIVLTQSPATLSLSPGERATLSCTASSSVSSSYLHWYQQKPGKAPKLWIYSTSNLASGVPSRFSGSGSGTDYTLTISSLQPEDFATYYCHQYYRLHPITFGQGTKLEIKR , report its measured pKd.
A: 8.14
